METHOD NOTES: qHTS RealTime-Glo MT Cell Viability Assay in HepG2 cells - 24 hour (AID 1224867); also: nearly all actives have a fitted effect of over 50% in size
CONDITION NOTES: RealTime-Glo luminescence; series mostly up to 76.8 µM
Inconclusive results are not listed. The source made the active and inactive calls. Calls follow the shape of the dose curve; as a rule, active = well fitted cell-killing curve with a large enough effect in the repeat runs; inconclusive = weak or mixed curves; inactive = flat fitted curve, though single readings scatter.
Classes used: active, inactive

{"INPUT SMILES": "C[C@H](CCC(=O)O)[C@H]1CC[C@H]2[C@@H]3CC[C@@H]4C[C@H](O)CC[C@]4(C)[C@H]3CC[C@]12C", "LABEL VALUE": "inactive"}
{"INPUT SMILES": "Cc1cc(O)c(C(C)(C)C)cc1Sc1cc(C(C)(C)C)c(O)cc1C", "LABEL VALUE": "active"}
{"INPUT SMILES": "Cc1onc(-c2c(Cl)cccc2Cl)c1C(=O)N[C@@H]1C(=O)N2[C@@H]1SC(C)(C)[C@@H]2C(=O)O", "LABEL VALUE": "inactive"}
{"INPUT SMILES": "O=c1[nH]sc2cc(Cl)ccc12", "LABEL VALUE": "active"}
{"INPUT SMILES": "ON=C1CCCC1", "LABEL VALUE": "inactive"}
{"INPUT SMILES": "CCCCCOC(=O)CCCC", "LABEL VALUE": "inactive"}
